Biological target: Paired box protein Pax-8 (Homo sapiens, UniProt Q06710)
Sequence (Q06710 whole entry): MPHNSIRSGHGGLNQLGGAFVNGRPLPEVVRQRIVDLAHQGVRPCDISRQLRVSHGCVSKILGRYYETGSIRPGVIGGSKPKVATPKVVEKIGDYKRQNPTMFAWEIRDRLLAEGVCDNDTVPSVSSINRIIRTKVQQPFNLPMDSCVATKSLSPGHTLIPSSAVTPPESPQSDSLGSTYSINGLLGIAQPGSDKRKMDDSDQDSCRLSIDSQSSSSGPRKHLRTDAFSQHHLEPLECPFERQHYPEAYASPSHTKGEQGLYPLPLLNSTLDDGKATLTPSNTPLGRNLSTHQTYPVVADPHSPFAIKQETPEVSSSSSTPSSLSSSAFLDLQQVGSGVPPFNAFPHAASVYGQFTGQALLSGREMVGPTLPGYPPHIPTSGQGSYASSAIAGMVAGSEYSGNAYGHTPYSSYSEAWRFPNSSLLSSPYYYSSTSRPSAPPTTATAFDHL
Test: inhibitors of PAX8-driven TPO luciferase reporter, dose response, RMG-I cells, cherry-pick (AID 687027);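 further: luciferase reporter driven by Pax8 target thyroperoxidase promoter measured by SteadyGlo luminescence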
Type: functional, cell-based
Activity calls are given as the source filed them. How the calls were made is not given here.

{"smiles entry": "C[C@@H]1CN([C@H](C)CO)C(=O)c2cc(NC(=O)Nc3ccc(F)cc3)ccc2O[C@@H](C)CCCCO[C@H]1CN(C)S(=O)(=O)c1ccc(Cl)cc1", "measured target": "Paired box protein Pax-8 (Homo sapiens, UniProt Q06710)", "AC50": "6.11 µM (active)"}
{"smiles entry": "CCCNC(=O)N(C)C[C@H]1N[C@@H](CO)[C@@H]1c1ccc(C2=CCCCC2)cc1", "measured target": "Paired box protein Pax-8 (Homo sapiens, UniProt Q06710)", "AC50": "3.47 µM (active)"}
{"smiles entry": "C[C@@H]1CN([C@@H](C)CO)C(=O)Cc2cc(NS(=O)(=O)c3ccc(F)cc3)ccc2O[C@H]1CN(C)Cc1ccc(Cl)c(Cl)c1", "measured target": "Paired box protein Pax-8 (Homo sapiens, UniProt Q06710)", "AC50": "3.12 µM (active)"}
{"smiles entry": "COc1ccccc1S(=O)(=O)N(C)C[C@H]1Oc2cc(C#CCC3CCCC3)ccc2S(=O)(=O)N([C@@H](C)CO)C[C@H]1C", "measured target": "Paired box protein Pax-8 (Homo sapiens, UniProt Q06710)", "AC50": "9.5 µM (active)"}
{"smiles entry": "C(=N\\Nc1nc2ccccc2s1)/c1ccccn1", "measured target": "Paired box protein Pax-8 (Homo sapiens, UniProt Q06710)", "AC50": "3.32 µM (active)"}
{"smiles entry": "COc1ccc(S(=O)(=O)Nc2ccc3c(c2)C(=O)N([C@H](C)CO)C[C@@H](C)[C@H](CN(C)C(=O)Nc2ccc(C(F)(F)F)cc2)OCCCC[C@H](C)O3)cc1", "measured target": "Paired box protein Pax-8 (Homo sapiens, UniProt Q06710)", "AC50": "7.32 µM (active)"}
{"smiles entry": "Cc1ccc(S(=O)(=O)N(C)C[C@@H]2OCCCC[C@H](C)Oc3ccc(NS(=O)(=O)c4ccc(Cl)cc4)cc3C(=O)N([C@H](C)CO)C[C@H]2C)cc1", "measured target": "Paired box protein Pax-8 (Homo sapiens, UniProt Q06710)", "AC50": "7.27 µM (active)"}
{"smiles entry": "Cc1ccc(S(=O)(=O)Nc2ccc3c(c2)nc(CCN2CCCC2)n3C)cc1", "measured target": "Paired box protein Pax-8 (Homo sapiens, UniProt Q06710)", "AC50": "5.89 µM (active)"}
